Target: LCK (Homo sapiens, UniProt P06239)
Sequence (P06239 whole entry): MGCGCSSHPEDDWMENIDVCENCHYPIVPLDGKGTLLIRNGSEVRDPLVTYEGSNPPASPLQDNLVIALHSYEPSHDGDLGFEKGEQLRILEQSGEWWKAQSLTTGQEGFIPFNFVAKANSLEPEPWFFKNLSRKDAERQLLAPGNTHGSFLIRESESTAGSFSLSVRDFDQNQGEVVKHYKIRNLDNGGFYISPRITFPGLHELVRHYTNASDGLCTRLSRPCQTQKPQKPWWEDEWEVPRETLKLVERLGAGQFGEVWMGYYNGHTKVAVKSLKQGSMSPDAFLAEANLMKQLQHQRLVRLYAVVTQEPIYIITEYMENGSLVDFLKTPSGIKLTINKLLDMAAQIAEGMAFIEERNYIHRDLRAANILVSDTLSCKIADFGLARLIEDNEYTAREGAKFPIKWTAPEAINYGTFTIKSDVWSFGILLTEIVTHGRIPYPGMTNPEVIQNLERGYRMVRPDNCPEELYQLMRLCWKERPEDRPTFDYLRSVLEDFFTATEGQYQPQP
Test: Human kinase selectivity screening: LCK
Format: biochemical
Conditions: read-out: LCK pIC50 values (converted)
outcome-measure: IC50

# count of solved cases: 5
> print(dat)
                                   molecule                     measured.target  experimental.value
1  CN(C)Cc1ccc(-c2[nH]c3ncc(C#N)cc3c2-c2ccccc2)cc1  LCK (Homo sapiens, UniProt P06239)           0.0501 µM
2    CCCNc1nc(Nc2cnn(C)c2)c2c(=O)[nH]ccc2n1  LCK (Homo sapiens, UniProt P06239)              0.2 µM
3  Cn1cc(-c2cnc3[nH]cc(-c4cccc(C#N)c4)c3c2)cn1  LCK (Homo sapiens, UniProt P06239)             2.51 µM
4  O=S1(=O)Cc2ccc(Nc3nccc(-c4ccc(F)cc4)n3)cc2C1  LCK (Homo sapiens, UniProt P06239)             2.51 µM
5   Cc1cc(Nc2cc(C3CC3)[nH]n2)nc(N2CCCCC2)n1  LCK (Homo sapiens, UniProt P06239)                1 µM

Request the reported IC50 associated with O=C(Nc1ccc(-c2ccnc3[nH]ccc23)s1)C1(Cc2ccccc2)CCCNC1 (stereo not shown)
1.58 µM

Queued: CCCCc1nc(Nc2cccc(C)c2)c2c(=O)[nH]ccc2n1
> 25.1 µM

====

Below, each of the compounds is paired with its reported IC50 value.
Biological target: EGFR (Homo sapiens)
Sequence (P00533 25-1210): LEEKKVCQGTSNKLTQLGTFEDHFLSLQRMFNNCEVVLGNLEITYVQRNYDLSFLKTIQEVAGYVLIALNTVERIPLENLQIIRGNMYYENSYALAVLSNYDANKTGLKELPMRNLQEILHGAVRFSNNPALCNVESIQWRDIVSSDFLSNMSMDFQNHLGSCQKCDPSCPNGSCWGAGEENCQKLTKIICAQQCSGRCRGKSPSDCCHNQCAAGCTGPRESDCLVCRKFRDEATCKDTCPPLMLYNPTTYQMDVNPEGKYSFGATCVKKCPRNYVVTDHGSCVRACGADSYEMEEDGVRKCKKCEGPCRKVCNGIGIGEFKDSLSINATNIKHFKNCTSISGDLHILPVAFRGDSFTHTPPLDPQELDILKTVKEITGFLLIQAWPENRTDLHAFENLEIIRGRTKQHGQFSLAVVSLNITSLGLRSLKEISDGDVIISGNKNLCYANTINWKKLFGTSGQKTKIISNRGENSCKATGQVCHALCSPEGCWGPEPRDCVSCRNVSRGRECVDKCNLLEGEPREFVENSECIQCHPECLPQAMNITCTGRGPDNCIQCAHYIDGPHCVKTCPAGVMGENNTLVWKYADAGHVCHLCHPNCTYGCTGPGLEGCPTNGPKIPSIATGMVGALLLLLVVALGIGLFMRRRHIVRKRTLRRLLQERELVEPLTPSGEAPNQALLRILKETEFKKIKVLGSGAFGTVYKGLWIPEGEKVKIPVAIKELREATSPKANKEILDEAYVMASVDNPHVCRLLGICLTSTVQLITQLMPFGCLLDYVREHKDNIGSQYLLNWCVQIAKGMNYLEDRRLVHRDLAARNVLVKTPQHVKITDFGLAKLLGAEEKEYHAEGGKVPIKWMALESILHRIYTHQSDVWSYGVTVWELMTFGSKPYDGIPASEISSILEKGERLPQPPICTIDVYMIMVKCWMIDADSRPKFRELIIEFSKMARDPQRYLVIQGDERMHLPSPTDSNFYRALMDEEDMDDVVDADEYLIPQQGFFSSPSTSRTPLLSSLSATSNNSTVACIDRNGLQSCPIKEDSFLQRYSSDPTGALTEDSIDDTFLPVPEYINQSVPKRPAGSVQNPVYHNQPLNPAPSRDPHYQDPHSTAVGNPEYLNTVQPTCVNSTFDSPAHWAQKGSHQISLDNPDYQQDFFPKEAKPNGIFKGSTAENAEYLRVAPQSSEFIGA
Assay: Human kinase selectivity screening: EGFR
Assay type: biochemical
Conditions: read-out: EGFR pIC50 values (converted)
Write it as a number; the unit µM goes unstated.

> print(dat)
                                   compound  experimental.value
1  CN(C)Cc1ccc(-c2[nH]c3ncc(C#N)cc3c2-c2ccccc2)cc1 [NEU-0001206]                2.51

Need IC50, item CCCNc1nc(Nc2cnn(C)c2)c2c(=O)[nH]ccc2n1 [NEU-0001187]
1.26

Next up: Cn1cc(-c2cnc3[nH]cc(-c4cccc(C#N)c4)c3c2)cn1 [NEU-0001207]
5.01

====

Target: JAK3 (Homo sapiens, UniProt P52333)
Sequence (P52333 whole entry): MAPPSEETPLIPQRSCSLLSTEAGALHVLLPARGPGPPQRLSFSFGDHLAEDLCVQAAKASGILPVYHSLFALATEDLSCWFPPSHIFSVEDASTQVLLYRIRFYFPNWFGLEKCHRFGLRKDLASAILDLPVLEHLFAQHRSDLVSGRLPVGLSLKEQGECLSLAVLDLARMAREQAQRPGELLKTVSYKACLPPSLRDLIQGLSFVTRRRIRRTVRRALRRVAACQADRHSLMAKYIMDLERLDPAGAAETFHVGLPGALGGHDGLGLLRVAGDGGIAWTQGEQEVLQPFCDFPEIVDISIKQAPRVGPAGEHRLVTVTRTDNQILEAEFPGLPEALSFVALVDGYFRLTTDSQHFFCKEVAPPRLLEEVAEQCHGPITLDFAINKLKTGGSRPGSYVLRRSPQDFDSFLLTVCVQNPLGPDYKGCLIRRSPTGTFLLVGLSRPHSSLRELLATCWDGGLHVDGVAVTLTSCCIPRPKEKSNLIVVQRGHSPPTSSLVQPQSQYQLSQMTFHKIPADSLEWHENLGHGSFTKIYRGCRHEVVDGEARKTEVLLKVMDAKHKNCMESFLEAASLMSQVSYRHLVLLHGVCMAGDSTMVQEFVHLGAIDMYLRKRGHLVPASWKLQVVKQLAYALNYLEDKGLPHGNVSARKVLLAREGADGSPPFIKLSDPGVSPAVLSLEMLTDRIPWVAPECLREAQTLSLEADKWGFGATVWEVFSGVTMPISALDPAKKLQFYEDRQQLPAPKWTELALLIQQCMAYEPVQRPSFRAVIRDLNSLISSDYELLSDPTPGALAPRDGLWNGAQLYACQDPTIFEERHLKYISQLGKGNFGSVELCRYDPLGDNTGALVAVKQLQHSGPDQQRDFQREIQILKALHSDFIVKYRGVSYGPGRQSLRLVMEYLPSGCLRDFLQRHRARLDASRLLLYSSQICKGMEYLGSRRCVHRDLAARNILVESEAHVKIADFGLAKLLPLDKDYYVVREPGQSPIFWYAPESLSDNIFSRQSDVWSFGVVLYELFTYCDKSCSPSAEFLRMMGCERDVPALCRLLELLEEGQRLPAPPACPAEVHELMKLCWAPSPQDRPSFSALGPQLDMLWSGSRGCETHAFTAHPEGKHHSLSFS
Test: Human kinase selectivity screening: JAK3
Assay type: biochemical
Settings: read-out: JAK3 pIC50 values (converted)
The entries below are paired with their reported IC50.
Value expressed in nM; do not type the unit.

> print(dat)
                                   compound  experimental.value
1  CN(C)Cc1ccc(-c2[nH]c3ncc(C#N)cc3c2-c2ccccc2)cc1                 501
2    CCCNc1nc(Nc2cnn(C)c2)c2c(=O)[nH]ccc2n1                2.51
3  Cn1cc(-c2cnc3[nH]cc(-c4cccc(C#N)c4)c3c2)cn1                 631

--- query ---
State its IC50 on JAK3 (Homo sapiens, UniProt P52333): CCCCc1nc(Nc2cccc(C)c2)c2c(=O)[nH]ccc2n1
200

====

This listing pairs molecules with measured IC50.
Target: ITK (Homo sapiens, UniProt Q08881)
Sequence (Q08881 whole entry): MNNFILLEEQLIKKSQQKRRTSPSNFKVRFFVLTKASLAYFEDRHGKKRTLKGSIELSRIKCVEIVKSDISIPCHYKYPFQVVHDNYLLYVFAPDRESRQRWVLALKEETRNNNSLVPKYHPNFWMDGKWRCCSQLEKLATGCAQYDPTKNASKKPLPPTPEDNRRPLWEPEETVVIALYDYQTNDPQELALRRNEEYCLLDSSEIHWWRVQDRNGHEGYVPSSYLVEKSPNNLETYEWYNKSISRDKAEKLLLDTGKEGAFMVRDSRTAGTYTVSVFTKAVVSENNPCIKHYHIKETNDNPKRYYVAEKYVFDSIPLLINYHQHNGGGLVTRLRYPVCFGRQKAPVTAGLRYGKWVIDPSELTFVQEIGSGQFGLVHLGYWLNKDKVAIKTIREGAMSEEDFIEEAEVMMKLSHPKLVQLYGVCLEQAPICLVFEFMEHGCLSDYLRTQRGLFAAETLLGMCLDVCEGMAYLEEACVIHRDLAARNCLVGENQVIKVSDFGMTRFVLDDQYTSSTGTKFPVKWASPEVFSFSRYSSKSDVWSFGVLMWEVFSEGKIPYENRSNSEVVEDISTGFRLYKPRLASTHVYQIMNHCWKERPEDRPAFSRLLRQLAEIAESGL
Assay: Human kinase selectivity screening: ITK
Assay type: biochemical
Conditions: read-out: ITK pIC50 values (converted)
Supply the numeric figure in nM, leaving out any unit text.

Example molecules with recorded IC50:
> print(dat)
                                   molecule  experimental.value
1  O=C(Nc1ccc(-c2ccnc3[nH]ccc23)s1)C1(Cc2ccccc2)CCCNC1 (stereo not shown)                 316
2  CN(C)Cc1ccc(-c2[nH]c3ncc(C#N)cc3c2-c2ccccc2)cc1                12.6
3  Cn1cc(-c2cnc3[nH]cc(-c4cccc(C#N)c4)c3c2)cn1                1000
4    CCCNc1nc(Nc2cnn(C)c2)c2c(=O)[nH]ccc2n1                63.1

--- query ---
Fill in the recorded IC50 for this molecule, with ITK (Homo sapiens, UniProt Q08881) as test system: Cc1cc(Nc2cc(C3CC3)[nH]n2)nc(N2CCCCC2)n1
1000

From: paper PMC4207660
